Measured IC50 accompanies every entry in the list below.
biological target: SULT1A1*2 (Homo sapiens, UniProt P50225, R213H); construct: purchased PanVera (Madison, WI); host or cells: Sf-9; assay: Inhibition of 3-OH-BaP sulfotransferase activity by OH-PCBs with expressed SULT1A1*2; assay type: biochemical; details: 0.1 μM 3-OH-BaP; mean of duplicates; read-out: IC50 SULT1A1*2
Sequence (P50225 whole entry R213H): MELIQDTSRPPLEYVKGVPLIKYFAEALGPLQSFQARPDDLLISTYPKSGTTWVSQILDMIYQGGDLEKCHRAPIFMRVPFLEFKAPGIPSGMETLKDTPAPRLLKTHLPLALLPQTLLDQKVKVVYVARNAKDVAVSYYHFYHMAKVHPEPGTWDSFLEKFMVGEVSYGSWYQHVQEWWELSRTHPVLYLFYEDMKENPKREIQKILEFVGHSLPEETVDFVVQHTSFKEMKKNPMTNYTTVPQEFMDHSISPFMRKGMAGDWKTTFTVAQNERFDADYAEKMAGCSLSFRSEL
Supply the numeric figure in µM, leaving out any unit text.

Oc1ccc(-c2c(Cl)cc(Cl)cc2Cl)cc1Cl [Compound B3, 4′-OH-CB69] : 1.31
Oc1ccc(-c2c(Cl)c(Cl)cc(Cl)c2Cl)cc1Cl [Compound B5, 4′-OH-CB112] : 1.48

Asked: Could you tell me which IC50 is on file for Oc1ccc(-c2cc(Cl)cc(Cl)c2)cc1Cl [Compound B2, 4′-OH-CB36] ?
Given back: 0.94

Ref: paper PMC1257591
